Origin of values: PubChem BioAssay (NCI)

test: NCI Yeast Anticancer Drug Screen. Data for the bub3 strain (AID 167); conditions: S. cerevisiae bub3 mutant strain, at 50.0 µM, active compounds read high
This is part of a sample that, as a whole, favours compounds with a hit. Of some 79,000 tested, about 15% had one in any assay.
growth inhibition values, listed per item
readout: growth inhibition (%)

                                    molecule  unit_name  recorded_value
 0  COC(=O)c1cc(C(=O)OC)c(C(=O)OC)cc1C(=O)OC          %             4.2
 1  COc1ccc(N2N=NN(C(C)C)/C2=C(/Cl)c2nnnn2-c2ccc(OC)cc2)cc1          %            24.9
 2         CC(=O)Nc1nc(NC(C)=O)c2nc(C)cnc2n1          %            10.6
 3  NC(=O)c1n[nH]c(C2OC(CO)C(O)C2O)n1 (centres undefined)          %            5.75
 4  C=C(C)C#CC(O)(C(=O)OC1CCN(C)CC1)C(C)C (centres undefined)          %            20.9
 5                CCN(CC)CCOCC(=O)Nc1ccccc1C          %            22.8
 6  CC1(C(=O)O)C(=O)Oc2c1c1ccccc1c1ccccc21 (centres undefined)          %            16.3
 7                COc1ccccc1NC(=O)NCCN1CCCC1          %            9.45
 8                             C=C(Cl)C(=O)O          %           -25.4
 9  COC(=O)c1c([N+](=O)[O-])ncn1[C@H]1OC[C@@H](OC(C)=O)[C@@H](OC(C)=O)[C@@H]1OC(C)=O          %            -5.5
10  O=C(CNc1ccc2c(=S)c3ccccc3[nH]c2c1)Nc1ccccc1-c1ccccc1NC(=O)CNc1ccc2c(=S)c3ccccc3[nH]c2c1          %            90.7
11  CC1CC/C(=C\c2ccccc2)C(=O)/C1=C/c1ccccc1 (centres undefined)          %            30.2
12   COCCNc1ccc([N+](=O)[O-])cc1[N+](=O)[O-]          %           -8.65
13                      CCc1ccccc1OCc1ccccc1          %               1
14           O=C(COc1ccc(Cl)cc1)Nc1ccc(I)cc1          %           -1.45
15                  O=c1[nH]c2cccnc2[nH]c1=O          %           -32.5
16                 COc1ccc(C(=O)OC2CCCC2)cc1          %             9.6
17          C=CCOCC(O)CO (centres undefined)          %            10.1
18       COc1ccc(N=Cc2cc(OC)c(OC)c(OC)c2)cc1          %           -12.9
19  Cc1ccc(S(=O)(=O)OCC(c2ccccc2)C(F)(F)F)cc1 (centres undefined)          %            18.6
20  CC1COC(c2ccc(C(C)C)cc2)O1 (centres undefined)          %            0.55
21  O=c1[nH]c2cc(Cl)ccc2nc1/C(=N\O)C(O)c1cccc([N+](=O)[O-])c1 (centres undefined)          %            -5.1
22  O=C(NC(=O)C1CCC(=O)N1Cc1ccccc1)NC1CCC(=O)N1Cc1ccccc1 (centres undefined)          %            0.85
23  Cc1c2c([nH]c(=O)c1C)C=CC(Br)C2Br (centres undefined)          %             0.2
